Would you kindly list melting point for each of these molecules?

Consider the following illustrative entries.
>  <MOLECULE>
Cc1c(NC(=O)c2ccc(-c3ccc(F)cc3)nc2)ccc2cc(CN3CCCC3)cnc12

>  <RESULT>
207 to 209 °C

$$$$
>  <MOLECULE>
O=C(Nc1ccc2cc(CN3CCC(CCO)CC3)cnc2c1)c1ccc(-c2ccc(F)cc2)cc1

>  <RESULT>
193 to 196 °C

$$$$
>  <MOLECULE>
NC(=O)C1CCN(Cc2cnc3cc(NC(=O)c4ccc(-c5ccc(F)cc5)cc4)ccc3c2)CC1

>  <RESULT>
261 to 265 °C

$$$$
>  <MOLECULE>
Cc1cc2cc(CN3CCCC3)cnc2cc1NC(=O)c1ccc(-c2ccc(F)cc2)c(F)c1

>  <RESULT>
163 to 166 °C

$$$$
>  <MOLECULE>
Cc1c(NC(=O)c2ccc(-c3ccc(F)cc3)cc2F)ccc2cc(CN3CCCC3)cnc12

>  <RESULT>
176 to 178 °C

$$$$

Could you report melting point for every entry in the following list?
1. O=C(Nc1cc2ncc(CN3CCCC3)cc2cc1F)c1ccc(-c2ccccc2)cc1F
2. Cc1c(NC(=O)c2ccc(-c3ccc(Cl)cc3)cc2F)ccc2cc(CN3CCCC3)cnc12

**Result**
["163 to 164 °C", "181 to 183 °C"]

**Query** May I ask what melting point has been recorded for `Cc1c(NC(=O)c2ccc(-c3ccc(F)cc3)cc2)ccc2cc(CN3CCCC3)cnc12` ?
**Result** 220 to 222 °C

---

Would you kindly list melting point for each of these compounds?

Consider the following illustrative entries.
>  <MOLECULE>
O=C(Nc1ccc2cc(CN3CCCC3)cnc2c1)c1ccc(-c2ccc(F)cc2)cc1

>  <melting point>
210 to 212 °C

$$$$
>  <MOLECULE>
CCNC(=O)COC1CCN(Cc2cnc3cc(NC(=O)c4ccc(-c5ccc(F)cc5)cc4)ccc3c2)CC1

>  <melting point>
228 to 230 °C

$$$$
>  <MOLECULE>
Cc1c(NC(=O)c2ccc(-c3ccc(F)cc3)cc2)ccc2cc(CN3CCC(CCCC(N)=O)CC3)cnc12

>  <melting point>
232 to 234 °C

$$$$
>  <MOLECULE>
CCNC(=O)C1CCN(Cc2cnc3cc(NC(=O)c4ccc(-c5ccc(F)cc5)cc4)c(C)cc3c2)CC1

>  <melting point>
254 °C

$$$$
>  <MOLECULE>
Cc1cc2cc(CN3CCCC3)cnc2cc1NC(=O)c1ccc(-c2ccsc2)cc1

>  <melting point>
187 °C

$$$$

Could you report melting point for every entry in the following list?
1. Cc1c(NC(=O)c2ccc(-c3ccc(F)cc3)cc2)ccc2cc(CN3CCCCCC3)cnc12
2. NC(=O)C1CCN(Cc2cnc3cc(NC(=O)c4ccc(-c5ccc(Cl)cc5)cc4)ccc3c2)CC1
3. CN1CCc2nc3cc(NC(=O)c4ccc(-c5ccc(Cl)cc5)cc4)ccc3cc2C1
4. O=C(Nc1ccc2cc(CN3CCCC3)cnc2c1)N1CCC(c2ccc(Cl)cc2)CC1
5. O=C(Nc1cc2ncc(CN3CCCC3)cc2cc1F)c1ccc(-c2ccc(F)cc2)cc1

**Result**
1. 166 to 168 °C
2. 260 °C
3. > 220 °C (dec.)
4. 249 to 251 °C
5. 198 to 200 °C

Could you report melting point for every entry in the following list?
1. COc1ccc(-c2ccc(C(=O)Nc3cc4ncc(CN5CCCC5)cc4cc3Cl)cc2)cc1
2. Cc1ccc(-c2ccc(C(=O)Nc3cc4ncc(CN5CCCC5)cc4cc3C)cc2F)cc1
3. Cc1c(NC(=O)N2CCC(c3ccc(Cl)cc3)CC2)ccc2cc(CN3CCCC3)cnc12
4. COc1ccc(-c2ccc(C(=O)Nc3ccc4cc(CN5CCCCC5)cnc4c3C)cc2)cc1
5. COc1ccc(-c2ccc(C(=O)Nc3cc4ncc(CN5CCCC5)cc4cc3C)cc2F)cc1
6. Cc1cc2cc(CN3CCCC3)cnc2cc1NC(=O)c1ccc(-c2ccc(F)cc2)cc1F

**Result**
184 °C
175 to 178 °C
203 to 205 °C
190 to 192 °C
165 to 167 °C
174 to 177 °C

---

Would you kindly list melting point for each of these compounds?

Consider the following illustrative entries.
>  <MOLECULE>
CCN(CC)Cc1cnc2cc(NC(=O)c3ccc(-c4ccc(Cl)cc4)cc3)c(OC)cc2c1

>  <RESULT>
271 °C (dec.)

$$$$
>  <MOLECULE>
Cc1c(NC(=O)c2ccc(-c3ccccc3F)cc2F)ccc2cc(CN3CCCC3)cnc12

>  <RESULT>
159 to 160 °C

$$$$
>  <MOLECULE>
O=C(Nc1cc2ncc(CN3CCCC3)cc2cc1F)c1ccc(-c2ccc(Cl)cc2)cc1F

>  <RESULT>
217 to 219 °C

$$$$
>  <MOLECULE>
CN1CCc2nc3cc(NC(=O)c4ccc(-c5ccc(Cl)cc5)cc4F)ccc3cc2C1

>  <RESULT>
> 220 °C (dec.)

$$$$
>  <MOLECULE>
Cc1cc2cc(CN3CCCC3)cnc2cc1NC(=O)c1ccc(-c2ccc(Cl)cc2)cc1F

>  <RESULT>
195 to 198 °C

$$$$
>  <MOLECULE>
Cc1c(NC(=O)c2ccc(-c3ccc(Cl)cc3)nc2)ccc2cc(CN3CCCC3)cnc12

>  <RESULT>
234 to 236 °C

$$$$
>  <MOLECULE>
CCNC(=O)CCCC1CCN(Cc2cnc3cc(NC(=O)c4ccc(-c5ccc(F)cc5)cc4)ccc3c2)CC1

>  <RESULT>
209 to 213 °C

$$$$

Next up:
**Query** May I ask what melting point has been recorded for `Cc1ccc(-c2ccc(C(=O)Nc3ccc4cc(CN5CCCC5)cnc4c3C)c(F)c2)cc1` ?
**Result** 180 to 182 °C

---

MEASURED PROPERTY: melting point

Consider the following illustrative entries.
>  <COMPOUND>
CC(=O)NC1CCN(Cc2cnc3cc(NC(=O)c4ccc(-c5ccc(Cl)cc5)cc4)ccc3c2)C1 (centres unmarked)

>  <melting point>
> 285 °C

$$$$
>  <COMPOUND>
CNC(=O)CCCC1CCN(Cc2cnc3c(C)c(NC(=O)c4ccc(-c5ccc(F)cc5)cc4)ccc3c2)CC1

>  <melting point>
210 to 212 °C

$$$$
>  <COMPOUND>
Cc1c(NC(=O)c2ccc(-c3ccc(F)cc3)c(F)c2)ccc2cc(CN3CCCC3)cnc12

>  <melting point>
176 to 178 °C

$$$$
>  <COMPOUND>
Cc1ccc(-c2ccc(C(=O)Nc3ccc4cc(CN5CCCC5)cnc4c3C)cn2)cc1

>  <melting point>
178 to 180 °C

$$$$
>  <COMPOUND>
O=C(Nc1ccc2cc(CN3CCC(CO)CC3)cnc2c1)c1ccc(-c2ccc(F)cc2)cc1

>  <melting point>
191 to 195 °C

$$$$

Could you report melting point for every entry in the following list?
1. COc1ccc(-c2ccc(C(=O)Nc3ccc4cc(CN5CCCC5)cnc4c3C)c(F)c2)cc1
2. Cc1ccc(-c2ccc(C(=O)Nc3ccc4cc(CN5CCCC5)cnc4c3F)cc2)cc1
3. Cc1c(NC(=O)c2ccc(-c3ccc(C(F)(F)F)cc3)cc2)ccc2cc(CN3CCCC3)cnc12
4. Cc1ccc(-c2ccc(C(=O)Nc3cc4ncc(CN5CCCC5)cc4cc3C)c(F)c2)cc1
5. Cc1ccc(-c2ccc(C(=O)Nc3ccc4cc(CN5CCCC5)cnc4c3C)cc2)cc1
6. O=C(Nc1cc2ncc(CN3CCCC3)cc2cc1N1CCCC1)c1ccc(-c2ccc(F)cc2)cc1

**Result**
1. 164 to 166 °C
2. 210 to 213 °C
3. 220 to 222 °C
4. 176 to 179 °C
5. 177 to 179 °C
6. 182 to 184 °C

---

MEASURED PROPERTY: melting point

Consider the following illustrative entries.
>  <COMPOUND>
Cc1c(NC(=O)c2ccc(-c3ccc(Cl)s3)cc2)ccc2cc(CN3CCCCCC3)cnc12 (hydrate or solvate)

>  <melting point>
186 to 187 °C

$$$$
>  <COMPOUND>
Cc1cc2cc(CN3CCCC3)cnc2cc1NC(=O)c1ccc(-c2ccc(Cl)s2)cc1

>  <melting point>
216 °C

$$$$
>  <COMPOUND>
Cc1ccc(-c2ccc(C(=O)Nc3cc4ncc(CN5CCCC5)cc4cc3F)cc2)cc1

>  <melting point>
202 to 204 °C

$$$$
>  <COMPOUND>
Cc1cc2cc(CN3CCCCCC3)cnc2cc1NC(=O)c1ccc(-c2ccc(Cl)cc2)cc1

>  <melting point>
204 °C

$$$$
>  <COMPOUND>
CCc1c(NC(=O)c2ccc(-c3ccc(F)cc3)cc2)ccc2cc(CN3CCCC3)cnc12

>  <melting point>
266 to 267 °C

$$$$

Could you report melting point for every entry in the following list?
1. O=C(Nc1ccc2cc(CN3CCCCCC3)cnc2c1)c1ccc(-c2ccc(Cl)cc2)cc1
2. COc1ccc(-c2ccc(C(=O)Nc3ccc4cc(CN5CCCCCC5)cnc4c3C)cc2F)cc1 (hydrate or solvate)
3. Cc1c(NC(=O)c2ccc(-c3ccc(F)cc3)cc2)ccc2cc(CN3[C@H](C)CCC[C@@H]3C)cnc12
4. Cc1c(NC(=O)c2ccc(-c3ccc(Cl)s3)cc2)ccc2cc(CN3CCCCC3)cnc12

**Result**
1. 204 °C
2. 160 to 161 °C
3. 167 to 168 °C
4. 212 to 213 °C

**Query** May I ask what melting point has been recorded for Cc1c(NC(=O)c2ccc(-c3ccccc3)c(F)c2)ccc2cc(CN3CCCCC3)cnc12 (hydrate or solvate) ?
**Result** 138 to 139 °C
